Data credit: patent US20030032813A1

# reported melting point; entries follow

// solved cases for melting point follow
Cc1cc(C=C2SC(=S)N(CC(=O)O)C2=O)cc(C)c1O: 277 to 279 °C
CCOc1cc2cc(C=CC=C3SC(=S)N(CC(=O)OC)C3=O)sc2cc1OCC: 211 to 215 °C
CC(C)(C)c1cc(C=C2SC(=S)N(CCC(=O)O)C2=O)cc(C(C)(C)C)c1O: 218 to 219 °C
CCC1=C(C=CC(C)=CC=CC=C2SC(=S)N(CC(=O)O)C2=O)C(CC)(CC)CCC1: 192 to 195 °C
CC(C=CC1=C(C)CCCC1(C)C)=CC=CC(C)=CC=C1SC(=S)N(CC(=O)O)C1=O: 144 °C (dec.)
CC(C)(C)c1cc(C=C2SC(=S)N(C(CC(=O)O)C(=O)O)C2=O)cc(C(C)(C)C)c1O (centres unmarked): 240 °C (dec.)
O=C(O)COc1ccc(CC=C2SC(=S)N(CC(=O)O)C2=O)cc1: 111 to 120 °C (dec.)
O=C(O)CN1C(=O)C(=Cc2cc(OCc3ccccc3)ccc2O)SC1=S: 130 to 133 °C

Suppose we examine the molecule O=C(O)CN1C(=O)C(=Cc2ccc(O)cc2)SC1=S ; what melting point value has been reported?
230 to 232 °C

Suppose we examine the molecule O=C(O)CCC(C(=O)O)N1C(=O)C(=Cc2cc3ccccc3s2)SC1=S (centres unmarked) ; what melting point value has been reported?
220 to 221 °C

Suppose we examine the molecule O=C(O)CCN1C(=O)C(=Cc2cccc3ccccc23)SC1=S ; what melting point value has been reported?
159 to 161 °C

Suppose we examine the molecule CC(=C1SC(=S)N(CC(=O)O)C1=O)c1cc(O)cc(O)c1 ; what melting point value has been reported?
184 to 188 °C

Suppose we examine the molecule CCOc1c(C)cc(C=C2SC(=S)N(CC(=O)O)C2=O)c(C)c1OCC ; what melting point value has been reported?
185 to 190 °C

###

# reported % cAMP (Test conc. 50 μM); entries follow
Tested on: adenylate cyclase
Assay: assay for the capability of stimulating cyclic adenylate cyclase (cAMP formation)
Format: biochemical
Give just the numeric value; % need not be written.

// solved cases for % cAMP (Test conc. 50 μM) follow
CC(C)(C)c1cc(C=C2SC(=S)N(C(Cc3ccccc3)C(=O)O)C2=O)cc(C(C)(C)C)c1O (centres unmarked): 8
CC(C)(C)c1cc(C=C2SC(=S)N(CC(=O)O)C2=O)ccc1O: 8
CC(C=CC1=C(C)CCCC1(C)C)=C1SC(=S)N(CCC(=O)O)C1=O: 15

State its % cAMP (Test conc. 50 μM) on adenylate cyclase: CC(C)(C)c1cc(C=C2SC(=S)N(CCC(=O)O)C2=O)cc(C(C)(C)C)c1O
20

State its % cAMP (Test conc. 50 μM) on adenylate cyclase: CC(C)(C)c1cc(C=C2SC(=S)N(CC(=O)O)C2=O)cc(C(C)(C)C)c1O
40

###

# reported melting point; entries follow

// solved cases for melting point follow
O=C(O)CN1C(=O)C(=Cc2ccc(OCc3ccccc3)cc2)SC1=S: 205 to 206 °C
O=C(O)CN1C(=O)C(=CC2=CC=C(OCc3ccccc3)C(O)(O)C2)SC1=S: 178 to 180 °C
CC(=O)Oc1cc(C=C2SC(=S)N(CC(=O)O)C2=O)cc(OC(C)=O)c1OC(C)=O: 200 °C (dec.)
CC(C(=O)O)N1C(=O)C(=Cc2ccc(OCc3ccccc3)cc2)SC1=S (centres unmarked): 125 to 128 °C

Then this compound:
Suppose we examine the compound COc1cccc(COc2ccc(C=C3SC(=S)N(CC(=O)O)C3=O)cc2)c1 ; what melting point value has been reported?
191 to 193 °C
